target: WRN [UniPro: Q14191 (WRN_HUMAN), N500-C946] (Homo sapiens (Human)); assay: WRN unwinding assay (FORKF DNA, fluorescence); type: biochemical; conditions: Table 14
Sequence (Q14191 500-946): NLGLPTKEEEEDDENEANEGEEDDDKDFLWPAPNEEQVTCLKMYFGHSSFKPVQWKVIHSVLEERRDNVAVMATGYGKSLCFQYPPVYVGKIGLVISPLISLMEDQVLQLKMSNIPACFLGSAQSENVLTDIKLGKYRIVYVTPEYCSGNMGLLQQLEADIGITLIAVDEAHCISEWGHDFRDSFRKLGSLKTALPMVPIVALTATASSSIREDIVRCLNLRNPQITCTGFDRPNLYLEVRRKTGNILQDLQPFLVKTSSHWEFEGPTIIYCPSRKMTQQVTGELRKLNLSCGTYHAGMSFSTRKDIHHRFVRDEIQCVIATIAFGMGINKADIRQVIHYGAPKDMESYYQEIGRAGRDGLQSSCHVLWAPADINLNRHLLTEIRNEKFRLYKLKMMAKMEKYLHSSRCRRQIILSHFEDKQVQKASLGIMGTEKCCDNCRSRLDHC
reported.property: IC50

Here's what some known entries look like.
compound	experimental.result
CCc1c(N2CCN(C(=O)CNC(=O)c3ccccc3F)CC2)c(=O)n2nc(C3=CCOCC3)nc2n1CC(=O)Nc1nc(C)cs1 [Example 159]	100 to 1000 nM
CCc1c(N2CCN(C(=O)C(F)N3C(=O)c4ccccc4C3=O)CC2)c(=O)n2nc(C3=CCOCC3)nc2n1CC(=O)Nc1ccc(C(F)(F)F)cc1Cl (stereo not drawn) [Example 345]	100 to 1000 nM
CCc1c(N2CCN(C(=O)CNC(=O)c3c(F)cccc3F)CC2)c(=O)n2nc(C3=CCOCC3)nc2n1CC(=O)Nc1ccc(C(F)(F)F)cc1Cl [Example 124]	< 100 nM
CCc1c(N2CCN(C(=O)CNC(=O)[C@@H]3CCCO3)CC2)c(=O)n2nc(C3=CCOCC3)nc2n1CC(=O)Nc1ccc(C(F)(F)F)cc1Cl [Example 322]	< 100 nM
CCc1c(N2CCN(C(=O)CNC(=O)c3ccccc3F)CC2)c(=O)n2nc(C3=CCOCC3)nc2n1CC(=O)Nc1ccc(F)cc1F [Example 150]	< 100 nM

Now take the following compound into account.
Prompt: Value lookup for IC50; key = CCc1c(N2CCN(C(=O)c3[nH]c(=O)oc3C(F)(F)F)CC2)c(=O)n2nc(C3=CCOCC3)nc2n1CC(=O)Nc1ccc(C(F)(F)F)cc1Cl [Example 317]
Response: 100 to 1000 nM
